Biological target: human TLR7 (Homo sapiens)
Construct: host or cells: HEK293 reporter cells
Sequence (Q9NYK1 27-1049): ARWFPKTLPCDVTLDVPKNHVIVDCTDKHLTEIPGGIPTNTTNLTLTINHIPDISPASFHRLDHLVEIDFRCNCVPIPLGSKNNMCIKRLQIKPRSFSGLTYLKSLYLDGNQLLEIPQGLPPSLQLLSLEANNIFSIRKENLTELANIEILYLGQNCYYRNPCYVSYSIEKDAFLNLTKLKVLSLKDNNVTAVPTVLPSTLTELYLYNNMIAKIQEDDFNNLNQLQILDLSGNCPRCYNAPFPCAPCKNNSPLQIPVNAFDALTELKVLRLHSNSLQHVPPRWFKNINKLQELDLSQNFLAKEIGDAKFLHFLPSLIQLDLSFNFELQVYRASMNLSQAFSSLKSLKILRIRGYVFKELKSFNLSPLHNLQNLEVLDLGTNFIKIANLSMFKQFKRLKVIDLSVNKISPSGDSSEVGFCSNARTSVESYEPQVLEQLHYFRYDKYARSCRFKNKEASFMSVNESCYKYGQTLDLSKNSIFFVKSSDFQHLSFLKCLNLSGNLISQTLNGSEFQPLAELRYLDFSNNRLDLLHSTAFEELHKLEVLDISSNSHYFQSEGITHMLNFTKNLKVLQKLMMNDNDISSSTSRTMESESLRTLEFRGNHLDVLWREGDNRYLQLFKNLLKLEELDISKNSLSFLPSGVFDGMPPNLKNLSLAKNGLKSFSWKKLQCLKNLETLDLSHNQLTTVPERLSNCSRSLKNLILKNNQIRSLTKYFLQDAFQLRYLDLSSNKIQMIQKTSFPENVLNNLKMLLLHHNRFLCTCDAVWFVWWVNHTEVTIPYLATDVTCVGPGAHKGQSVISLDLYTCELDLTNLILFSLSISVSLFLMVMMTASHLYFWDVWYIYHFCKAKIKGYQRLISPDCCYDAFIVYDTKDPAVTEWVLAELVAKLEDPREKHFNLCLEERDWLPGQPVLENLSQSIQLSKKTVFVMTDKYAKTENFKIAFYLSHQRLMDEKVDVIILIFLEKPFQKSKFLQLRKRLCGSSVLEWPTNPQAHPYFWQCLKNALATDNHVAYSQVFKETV
Assay: HEK Reporter Assay, HEK293 NFKB reporter cells expressing human TLR7
Type: cell-based
Settings: Table 1c, read-out: HEK293 hTLR7 EC50
pEC50: −log10 of the molar value.
experimental-endpoint: pEC50

>>> experimental_value("CCCN(OCC)C(=O)C1=Cc2sc(C#CC3CNC3)cc2N=C(N)C1")
5.47
>>> experimental_value("CCCN(OCC)C(=O)C1=Cc2sc(CN3Cc4ccc(NC(=O)CCN)cc4C3)cc2N=C(N)C1")
"≤ 5.05"
>>> experimental_value("CCCN(OCC)C(=O)C1=Cc2sc(CN3C[C@H]4CN(C(=O)OC(C)(C)C)C[C@@H]4C3)cc2N=C(N)C1")
"≤ 5.05"
>>> experimental_value("CCONC(=O)C1=Cc2sc(CC3CNC3)cc2N=C(N)C1")
"≤ 5.05"
>>> experimental_value("CCCN(OCC)C(=O)C1=Cc2sc(CN3CCCN(C(=O)OC(C)(C)C)CC3)cc2N=C(N)C1")
6.36
>>> experimental_value("CCCN(CCC)C(=O)C1=Cc2sc(CC(=O)NCCN)cc2N=C(N)C1")
"≤ 5.05"
>>> experimental_value("CCCN(OCC)C(=O)C1=Cc2sc(CN3CC4(CCN4Cc4ccccc4)C3)cc2N=C(N)C1")
"≤ 5.05"
>>> experimental_value("CCCN(CCCNC(=O)OC1CCC1)C(=O)C1=Cc2sc(C#CC3CCN(C(=O)OC(C)(C)C)CC3)cc2N=C(N)C1")
"≤ 5.05"
